Observed GI50 values for NCI-H226 lung are listed in what follows.

Consider the reported GI50 for these compounds:
ClCCn1cnc2c(SCc3ccccc3)ncnc21 31 µM
COc1cccc2c(=O)c3c(sc12)c(NCCCN)nc1ccccc13 1.52 µM
CCOC(=O)/C(C1=CC(=O)C(=O)c2ccccc21)=C(/C)NCc1ccccc1 2.62 µM
CN(C)CCNc1cccc2sc3ccc(O)cc3c(=O)c12 5.94 µM

IN: Recorded GI50 for "O=Nc1c2cccnc2n2nnc3ccc(Cl)cc3c12" with NCI-H226 lung, please?
OUT: 4.96 µM

IN: Recorded GI50 for "O=C(/C=C/c1ccc([N+](=O)[O-])o1)NNC(=O)c1cc2ccccc2cc1O" with NCI-H226 lung, please?
OUT: 3.51 µM

====

tested on: MALME-3M melanoma; test: NCI tumour cell line growth inhibition, 48 h
attribute_measured: TGI

Consider the reported TGI for these molecules:
molecule	target_under_test	TGI
Cc1ccc(-c2cc3nc(-c4ccccc4)nc(C(Cl)Cl)n3n2)cc1	MALME-3M melanoma	> 50 µM
CCN(CC)CCNc1ccc(N=Nc2ccc(S(N)(=O)=O)cc2)c2ccccc12	MALME-3M melanoma	36 µM

IN: What measured TGI goes with "CCn1c2c(c3c(C(=O)OC)c(O)ccc31)C(=O)c1ccccc1C2=O" ?
OUT: 35 µM

IN: What measured TGI goes with "CN(C)Cc1cc(C(=O)O)cc(CN(C)C)c1O" ?
OUT: > 100 µM

IN: What measured TGI goes with "c1c[nH]c(Cc2ncc(Cc3cnc[nH]3)[nH]2)n1" ?
OUT: > 100 µM

IN: What measured TGI goes with "CN(C)CCNC(=O)c1cccc(CO)c1[N+](=O)[O-]" ?
OUT: > 100 µM

IN: What measured TGI goes with NC(=O)c1ccccc1NC(=O)C(=O)C(c1cnc2ccc([N+](=O)[O-])cc2n1)[N+](=O)[O-] (stereo unspecified) ?
OUT: > 100 µM

IN: What measured TGI goes with "COc1ccc2c(C3(O)CCNCC3)c[nH]c2c1" ?
OUT: > 100 µM

IN: What measured TGI goes with "COc1ccc(CN=CN/C(C#N)=C(\N)C#N)cc1OC" ?
OUT: > 100 µM

IN: What measured TGI goes with CC1(C)OC2C(=O)OC(COCc3ccccc3)C2O1 (stereo unspecified) ?
OUT: > 100 µM

IN: What measured TGI goes with "C=C1C(=O)O[C@H]2[C@H]1CC/C(COC(=O)c1ccc(C(=O)O)s1)=C\CC[C@@]1(C)O[C@@H]21" ?
OUT: 4.25 µM

====

Documented TGI across a set of compounds
test system: MOLT-4 leukemia; experiment: NCI tumour cell line growth inhibition, 48 h
Where a SMILES comes first, the peptide text is derived from it. The star is where a group is joined. Boc = CC(C)(C)OC(=O)*

compound	result
CC(NC(=O)C(NC(=O)OC(C)(C)C)C(C)C)C(=O)NCC(=O)O (stereo not drawn) (Boc-Val-Ala-Gly-OH; configuration not given here)	> 100 µM
Cc1ccc(C)c(NC(=O)/C(=N\NC(N)=S)C(C#N)c2ccccc2)c1 (stereo not given)	> 100 µM
CCCCCCCCOCC1S(=O)(=O)OCCOS1(=O)=O	> 100 µM

IN: What measured TGI goes with "O=C(Nc1ccc(Br)cc1)c1cc(Br)cc(Br)c1O" ?
OUT: > 100 µM

IN: What measured TGI goes with "O=C1c2cccc3cc([N+](=O)[O-])cc(c23)C(=O)N1CCCN1CCN(CCCN2C(=O)c3cccc4cc([N+](=O)[O-])cc(c34)C2=O)CC1" ?
OUT: > 100 µM
